Biological target: T1, ActRIIB homodimer Fc fusion (UniProt Q13705 20-134)
T1 construct: Comparator; also called homodimeric ActRIIB Fc fusion; homomeric ActRIIB-Fc; not shown: linker and Fc domain of the homodimer are not described
T1 sequence (looked up): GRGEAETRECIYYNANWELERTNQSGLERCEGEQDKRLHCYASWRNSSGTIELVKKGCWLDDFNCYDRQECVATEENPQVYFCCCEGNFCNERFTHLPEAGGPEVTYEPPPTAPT
Assay: SPR (Biacore); Fc fusion captured by anti-Fc antibody, ligand injected
Description: A Biacore™-based binding assay was used to compare ligand binding selectivity of the single-arm ActRIIB heterodimer Fc fusion described above with that of ActRIIB homodimer Fc fusion. Single-arm ActRIIB […] Fc fusion and ActRIIB homodimer Fc fusion were independently captured onto the system using an anti-Fc antibody. Ligands were injected and allowed to flow over the captured receptor protein.
PROPERTY MEASURED: koff (s⁻¹)
Express your answer in s⁻¹, writing the number without its unit.

Q: # input binder: GDF11 (ligand, UniProt O95390 299-407, looked up, also called BMP11) NLGLDCDEHSSESRCCRYPLTVDFEAFGWDWIIAPKRYKANYCSGQCEYMFMQKYPHTHLVQQANPRGSAGPCCTPTKMSPINMLYFNDKQQIIYGKIPGMVVDRCGCS ; wanted: its koff
Ans: 0.00011

Others:
Q: Param item = BMP10 (ligand, UniProt O95393 317-424, looked up) NAKGNYCKRTPLYIDFKEIGWDSWIIAPPGYEAYECRGVCNYPLAEHLTPTKHAIIQALVHLKNSQKASKACCVPTKLEPISILYLDKGVVTYKFKYEGMAVSECGCR ; retrieve measured koff.
Ans: 0.00026

Q: I would be grateful if you could share the reported koff for GDF3 (ligand, UniProt Q9NR23 251-364, looked up, also called VGR2) AAIPVPKLSCKNLCHRHQLFINFRDLGWHKWIIAPKGFMANYCHGECPFSLTISLNSSNYAFMQALMHAVDPEIPQAVCIPTKLSPISMLYQDNNDNVILRHYEDMVVDECGCG .
Ans: 0.0022

Q: Entry BMP9 (ligand, UniProt Q9UK05 320-429, looked up, also called GDF2) SAGAGSHCQKTSLRVNFEDIGWDSWIIAPKEYEAYECKGGCFFPLADDVTPTKHAIVQTLVHLKFPTKVGKACCVPTKLSPISVLYKDDMGVPTLKYHYEGMSVAECGCR : reported koff = ?
Ans: 0.0011
